study.target: Human opiate κ receptors (Homo sapiens)
Sequence (P41145 whole entry): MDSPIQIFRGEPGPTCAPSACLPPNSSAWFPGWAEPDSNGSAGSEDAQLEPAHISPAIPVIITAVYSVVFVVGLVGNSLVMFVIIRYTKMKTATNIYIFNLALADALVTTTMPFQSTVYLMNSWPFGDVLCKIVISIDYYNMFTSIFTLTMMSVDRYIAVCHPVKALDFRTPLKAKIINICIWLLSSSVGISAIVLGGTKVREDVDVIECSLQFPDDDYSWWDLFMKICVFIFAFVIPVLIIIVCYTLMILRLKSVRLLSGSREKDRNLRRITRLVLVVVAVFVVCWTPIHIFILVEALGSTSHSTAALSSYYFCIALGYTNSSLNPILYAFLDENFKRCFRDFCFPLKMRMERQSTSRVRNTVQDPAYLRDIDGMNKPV
assay.notes: κ opioid receptor functional assay, [35S]GTPγS binding (assay C)
Assay type: biochemical
test.conditions: GTPγS EC50 (nM)
attribute.measured: EC50

Example entries begin here.
1) COC(=O)N1CCN(C(=O)Cc2ccc(Cl)c(Cl)c2)[C@@H]2[C@@H](N(C)C)CCC[C@@H]21
< 10 nM
2) COC(=O)N1CCN(C(=O)Cc2ccc(Cl)c(F)c2)[C@@H]2[C@@H](N3CC[C@H](O)C3)CCC[C@@H]21
< 10 nM
3) O=C(Cc1ccc(Cl)c(Cl)c1)N1CCN(Cc2cccnc2)C2CCCC(N3CCCC3)C21 (racemic)
< 10 nM
4) COC(=O)N1CCN(C(=O)Cc2ccc(C(F)(F)F)c(Cl)c2)[C@@H]2[C@@H](N3CC[C@H](O)C3)CCC[C@@H]21
< 10 nM

For each listed entry, give its EC50.
1. O=C(C1CC1)N1CCN(C(=O)Cc2ccc(Cl)c(Cl)c2)C2C(N3CCCC3)CCCC21 (racemic)
2. CS(=O)(=O)N1CCN(C(=O)Cc2ccc(Cl)c(Cl)c2)C2C(N3CCCC3)CCCC21 (racemic)
3. COC(=O)N1CCN(C(=O)Cc2cccc(Cl)c2)[C@@H]2[C@@H](N3CC[C@H](O)C3)CCC[C@@H]21

Completion:
1: < 10 nM; 2: < 10 nM; 3: 10 to 100 nM
